Target: Hepatitis C virus serine protease, NS3/NS4A (Hepatitis C virus, UniProt A3EZI9+D2K2A8, R155K)
Assay: Inhibition of HCV genotype 1b BK NS3/4A protease R155K mutant expressed in Escherichia coli incubated for 30 mins by time-resolved fluorescence assay
pKi: −log10 of the molar value.

# smiles representation, pKi
measured = [
    ("C=C[C@@H]1C[C@]1(NC(=O)[C@@H]1C[C@@H]2CN1C(=O)[C@H](C1CCCCC1)NC(=O)O[C@@H]1COC[C@H]1C/C=C/c1cc3c(cc(OCC)nc3cc1OC)O2)C(=O)NS(=O)(=O)C1CC1", 9.30),
    ("C=C[C@@H]1C[C@]1(NC(=O)[C@@H]1C[C@@H]2CN1C(=O)[C@H](C1CCCC1)NC(=O)N1CC(C1)OCCC/C=C/c1cc3ccc(OC)cc3nc1O2)C(=O)NS(=O)(=O)C1CC1", 9.30),
    ("C=C[C@@H]1C[C@]1(NC(=O)[C@@H]1C[C@@H]2CN1C(=O)[C@H](C1CCCCC1)NC(=O)N1CCC(CC1)OCCC/C=C/c1cc3c(cc(OCC)nc3cc1OC)O2)C(=O)NS(=O)(=O)C1CC1", 9.70),
    ("C=C[C@@H]1C[C@]1(NC(=O)[C@@H]1C[C@@H]2CN1C(=O)[C@H](C1CCCCC1)NC(=O)N1CC[C@@H](C1)OC/C=C/c1cc3c(cc(OCC)nc3cc1OC)O2)C(=O)NS(=O)(=O)C1CC1", 9.70),
    ("C=C[C@@H]1C[C@]1(NC(=O)[C@@H]1C[C@@H]2CN1C(=O)[C@H](C1CCCCC1)NC(=O)O[C@@H]1CCCC[C@H]1C/C=C/c1cc3c(cc(OCC)nc3cc1OC)O2)C(=O)NS(=O)(=O)C1CC1", 8.82),
]

---

Target: Genome polyprotein (Hepacivirus C, UniProt K7XJL6, A156T)
Assay: Inhibition of HCV genotype 1b BK NS3/4A protease A156T mutant expressed in Escherichia coli incubated for 30 mins by time-resolved fluorescence assay
A collection of compounds and their measured log10 Ki
attribute measured: log10 Ki (log10 of the value in µM)

# smiles representation, attribute measured, data value
records = [
    ("C=C[C@@H]1C[C@]1(NC(=O)[C@@H]1C[C@@H]2CN1C(=O)[C@H](C1CCCC1)NC(=O)N1CC(C1)OCCC/C=C/c1cc3ccc(OC)cc3nc1O2)C(=O)NS(=O)(=O)C1CC1", "log10 Ki", -1.55),
    ("C=C[C@@H]1C[C@]1(NC(=O)[C@@H]1C[C@@H]2CN1C(=O)[C@H](C1CCCC1)NC(=O)O[C@@H]1CCC[C@H]1CCC/C=C/c1cc3ccc(OC)cc3nc1O2)C(=O)NS(=O)(=O)C1CC1", "log10 Ki", -1.77),
    ("C=C[C@@H]1C[C@]1(NC(=O)[C@@H]1C[C@@H]2CN1C(=O)[C@H](C1CCCCC1)NC(=O)N1CC[C@@H](C1)OC/C=C/c1cc3c(cc(OCC)nc3cc1OC)O2)C(=O)NS(=O)(=O)C1CC1", "log10 Ki", -3.40),
    ("C=C[C@@H]1C[C@]1(NC(=O)[C@@H]1C[C@@H]2CN1C(=O)[C@H](C1CCCC1)NC(=O)O[C@@H]1COC[C@H]1CCC/C=C/c1cc3ccc(OC)cc3nc1O2)C(=O)NS(=O)(=O)C1CC1", "log10 Ki", -2.11),
    ("C=C[C@@H]1C[C@]1(NC(=O)[C@@H]1C[C@@H]2CN1C(=O)[C@H](C1CCCC1)NC(=O)O[C@@H]1CCC[C@@]1(C)C/C=C/c1cc3c(cc(OCC)nc3cc1OC)O2)C(=O)NS(=O)(=O)C1CC1", "log10 Ki", -1.31),
]
